# System: Fibroblast
# experimentSummary: Multiplex assay against human fibroblast
# Format: toxicity, cell-based
# experimentalConditions: 48 h, 10 µM, compound concentration 10 uM, replicate 2
Each record is given YES if its reported Population Membrane Permeable-Phenotype (%) is strictly below 20%. Records at or above 20% are given NO.

Please review the entries below; each comes with its answer.
COc1cc2c(NC3CCN(C(C)C)CC3)nc(N3CCC(F)(F)CC3)nc2cc1OCCCN1CCCC1 :: YES
CCn1c(-c2nonc2N)nc2cnc(Oc3cccc(NC(=O)c4ccc(OCCN5CCOCC5)cc4)c3)cc21 [GSK-269962A] :: YES
Nc1nc2c(c(N3CCNCC3)n1)CCC1=C2[C@@H]2CCCC[C@@H]2O1 :: YES
CCCn1c(=O)c2[nH]c(C34CC5CC(CC3C5)C4)nc2n(CCC)c1=O :: NO
Cc1nc(Cc2cccc(C(F)(F)F)c2)sc1-c1ccc(C(N)=O)nc1 [TP-024n] :: YES

I wonder whether CCc1cc2c(cc1CC)CC(NC[C@H](O)c1ccc(O)c3[nH]c(=O)ccc13)C2 has Population Membrane Permeable-Phenotype (%) below 20%. Can you tell?
YES

I wonder whether O=C(O)c1ccc2cc(-c3ccc(O)c(C45CC6CC(CC(C6)C4)C5)c3)ccc2c1 has Population Membrane Permeable-Phenotype (%) below 20%. Can you tell?
NO

---

Each entry below carries its recorded Population Healthy Nuclei (%).
# System: U2OS
# experimentSummary: Multiplex assay against U2OS
# Format: toxicity, cell-based
# experimentalConditions: human, 48 h, 1 µM, compound concentration 1 uM, replicate 1
The figure you give is taken to be in %; do not add the unit.

Answered cases to consult:
CCc1cc2c(cc1CC)CC(NC[C@H](O)c1ccc(O)c3[nH]c(=O)ccc13)C2 :: 78
Nc1nc2c(c(N3CCNCC3)n1)CCC1=C2[C@@H]2CCCC[C@@H]2O1 :: 78
CCCn1c(=O)c2[nH]c(C34CC5CC(CC3C5)C4)nc2n(CCC)c1=O :: 78
Nc1ccc(C(=O)Nc2cccc(-c3nc(N4CCOCC4)c4oc5ncccc5c4n3)c2)cn1 :: 60
Cl.Cl.Nc1ncnc2c1c(-c1cccc(OCc3ccccc3)c1)cn2[C@H]1C[C@@H](CN2CCC2)C1 :: 73
Cc1cc2c(cc1N1C(=O)c3cccc4c(CCCO)ccc(c34)C1=O)n(C)c(=O)n2C :: 72

# lookup: Population Healthy Nuclei (%) of COc1cc2c(NC3CCN(C(C)C)CC3)nc(N3CCC(F)(F)CC3)nc2cc1OCCCN1CCCC1
64

---

# Tested on: HEK-293T
# experimentSummary: Multiplex assay against HEK293T
# Format: toxicity, cell-based
# experimentalConditions: human, 24 h, 1 µM, compound concentration 1 uM, replicate 1
assayMetric: Total Cell Count
The reply should be a number, written without any unit.

Answered cases to consult:
CNc1oc(-c2cccc3ccccc23)nc1C#N :: 325
Cc1cn(-c2cc(NC(=O)c3ccc4c(c3)CN(c3cncnc3)C[C@@H]4C)cc(C(F)(F)F)c2)cn1 :: 545
CNC(=O)c1nn(C)c2c1C(C)(C)Cc1cnc(Nc3ccc(N4CCN(C)CC4)cc3)nc1-2 :: 556
COc1ccc(NS(=O)(=O)c2sc3ccc(Cl)cc3c2C)cc1N1CCNCC1.Cl :: 399
Nc1nc2c(c(N3CCNCC3)n1)CCC1=C2[C@@H]2CCCC[C@@H]2O1 :: 298

# lookup: Total Cell Count of Cc1cc2c(cc1N1C(=O)c3cccc4c(CCCO)ccc(c34)C1=O)n(C)c(=O)n2C
295

# lookup: Total Cell Count of Nc1ccc(C(=O)Nc2cccc(-c3nc(N4CCOCC4)c4oc5ncccc5c4n3)c2)cn1
147

# lookup: Total Cell Count of c1ccc2oc(-c3csc(C4CCN(Cc5nc6ncccc6[nH]5)CC4)n3)cc2c1
538

# lookup: Total Cell Count of Cl.Cl.Nc1ncnc2c1c(-c1cccc(OCc3ccccc3)c1)cn2[C@H]1C[C@@H](CN2CCC2)C1
260
